Biological target: human CCK-B/gastrin receptor (wild-type) (Homo sapiens)
Construct: expressed in transfected cells; host or cells: COS-7
Assay: Total inositol phosphate production, COS-7 cells expressing wild-type receptor
Type: cell-based
Settings: wild-type receptor
OBSERVATION TYPE: intrinsic activity / functional classification

| MOLECULE | TARGET UNDER TEST | EXPERIMENTAL VALUE |
| --- | --- | --- |
| C[C@](Cc1c[nH]c2ccccc12)(NC(=O)OC1C2CC3CC(C2)CC1C3)C(=O)NC[C@H](NC(=O)/C=C/C(=O)O)c1ccccc1 (stereo partly shown) [PD 136,450] | human CCK-B/gastrin receptor (wild-type) (Homo sapiens) | partial agonists |
| CC1(C)[C@H]2CC[C@@]1(C)[C@H](OC(=O)N[C@](C)(Cc1c[nH]c3ccccc13)C(=O)NC[C@H](NC(=O)CCC(=O)O)c1ccccc1)C2 [PD 135,158] | human CCK-B/gastrin receptor (wild-type) (Homo sapiens) | partial agonists |

---

Biological target: human CCK-B/gastrin receptor (wild-type) (Homo sapiens, UniProt P32239)
Construct: expressed in transfected cells; host or cells: COS-7
Sequence (P32239 1-447): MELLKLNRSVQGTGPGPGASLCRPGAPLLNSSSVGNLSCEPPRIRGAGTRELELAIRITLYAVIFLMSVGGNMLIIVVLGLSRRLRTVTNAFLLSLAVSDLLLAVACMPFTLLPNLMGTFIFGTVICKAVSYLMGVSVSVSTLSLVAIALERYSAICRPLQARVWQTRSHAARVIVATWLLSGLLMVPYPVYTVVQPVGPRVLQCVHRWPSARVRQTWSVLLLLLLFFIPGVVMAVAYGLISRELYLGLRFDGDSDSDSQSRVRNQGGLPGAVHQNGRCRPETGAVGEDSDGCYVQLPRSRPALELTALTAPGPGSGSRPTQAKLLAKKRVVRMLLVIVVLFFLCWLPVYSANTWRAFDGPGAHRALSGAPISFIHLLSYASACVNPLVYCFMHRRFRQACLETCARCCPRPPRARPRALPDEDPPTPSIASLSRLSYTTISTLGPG
Assay: 125I-CCK-8 competition binding, COS-7 cells expressing wild-type receptor
Conditions: wild-type receptor; read-out: Wild-type receptor Ki(nM), 125I CCK-8 binding affinity
OBSERVATION TYPE: Ki
Write your answer as a measured quantity: the number, then the unit.

Consider the worked cases shown below.
| COMPOUND | Ki |
| --- | --- |
| C[C@](Cc1c[nH]c2ccccc12)(NC(=O)OC1C2CC3CC(C2)CC1C3)C(=O)NC[C@H](NC(=O)/C=C/C(=O)O)c1ccccc1 (stereo partly drawn) | 0.99 nM |
| CC1(C)[C@H]2CC[C@@]1(C)[C@H](OC(=O)N[C@](C)(Cc1c[nH]c3ccccc13)C(=O)NC[C@H](NC(=O)CCC(=O)O)c1ccccc1)C2 | 2.25 nM |

Q: Which Ki reading was recorded for the compound Cc1cccc(NC(=O)N[C@@H]2N=C(c3ccccc3)c3ccccc3N(CC(=O)c3ccccc3C)C2=O)c1 ?
A: 0.07 nM

---

Target: human CCK-B/gastrin receptor (wild-type) (Homo sapiens, UniProt P32239)
Construct: expressed in transfected cells; host or cells: COS-7
Assay: Total inositol phosphate production, COS-7 cells expressing wild-type receptor
Assay type: cell-based
Settings: wild-type receptor; 95% C.I. in brackets; read-out: Wild-type receptor IC50(nM) 95% C.I., signaling potency
Provide the recorded IC50 for the entries that follow.
Give bare numbers, in nM.

I'm hoping you can list IC50 for every molecule here, please.
1. CC1(C)[C@H]2CC[C@@]1(C)[C@H](OC(=O)N[C@](C)(Cc1c[nH]c3ccccc13)C(=O)NC[C@H](NC(=O)CCC(=O)O)c1ccccc1)C2
2. C[C@](Cc1c[nH]c2ccccc12)(NC(=O)OC1C2CC3CC(C2)CC1C3)C(=O)NC[C@H](NC(=O)/C=C/C(=O)O)c1ccccc1 (some centres unmarked)

A:
1. 1.05
2. 0.36

Hey, just so you know, these numbers are from patent US6376198B1.
